Protein target, amino acids: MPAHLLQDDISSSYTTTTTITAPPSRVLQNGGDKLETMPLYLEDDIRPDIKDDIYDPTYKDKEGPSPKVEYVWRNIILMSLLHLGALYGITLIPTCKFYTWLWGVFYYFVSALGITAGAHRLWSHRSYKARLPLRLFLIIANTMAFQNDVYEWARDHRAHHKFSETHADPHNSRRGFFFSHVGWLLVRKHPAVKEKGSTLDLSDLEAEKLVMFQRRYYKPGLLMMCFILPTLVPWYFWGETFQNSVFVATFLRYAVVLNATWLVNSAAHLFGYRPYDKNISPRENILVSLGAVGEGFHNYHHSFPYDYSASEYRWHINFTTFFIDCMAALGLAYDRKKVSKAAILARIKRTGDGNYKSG
Exercise: for every item that follows, state its recorded pIC50.
Kindly note that pIC50 refers to -log10 of the concentration in mol/L and answer with the value alone.

Entry under review: `CCOC(=O)Nc1nc2ncc(-c3cn(Cc4cc(Br)c(Br)c(Br)c4)nn3)nc2s1` . Reported pIC50?
7.80

Entry under review: `O=C(O)c1ccc2nc(-c3cn(Cc4cc(Br)c(Br)c(Br)c4)nn3)sc2c1` . Reported pIC50?
7.85

Entry under review: `OCc1ccn2cc(-c3cn(Cc4cc(Cl)c(Cl)c(Cl)c4)nn3)nc2c1` . Reported pIC50?
7.41
